// provenance: paper PMC10999543

Assign z-scoreHeLa rep 3 to each entry below.
- Test system: HeLa cells
- Protocol description: Compound screen by flow cytometry: HeLa cell count as surrogate readout of cell viability (z-scoreHeLa); further: test concentration or dose not given here
- Assay type: cell-based, human
- Test settings: PKIS compound screen, HeLa cell count, replicate 3
Answer using only a numeral; do not append any unit.

I'd like to know its z-scoreHeLa rep 3. The compound in question is CCn1c(-c2nonc2N)nc2c(C#CC(C)(C)O)nc(OC[C@@H](N)c3ccccc3)cc21 [GSK938890A] 0.27

I'd like to know its z-scoreHeLa rep 3. The compound in question is Fc1ccc(-c2ncn(C3CCNCC3)c2-c2ccnc(Oc3ccc(F)c(F)c3)n2)cc1 -0.68

I'd like to know its z-scoreHeLa rep 3. The compound in question is COC(=O)c1cccc(NC(=O)NC2CCN(c3ccnc(NCc4ccc(F)cc4)n3)CC2)c1 [GSK1379860A] -1.70

I'd like to know its z-scoreHeLa rep 3. The compound in question is Fc1cc(Cl)ccc1Nc1ccnc2cc(-c3ccc(CN4CCSCC4)o3)ccc12 [GW560106X] -0.93

I'd like to know its z-scoreHeLa rep 3. The compound in question is NC(=O)c1cccc(Nc2nccc(Nc3ccc(Oc4cccc(Cl)c4)c(Cl)c3)n2)c1 [GW659008A] 0.30

I'd like to know its z-scoreHeLa rep 3. The compound in question is Cc1ccc(Nc2ccnc(Nc3cccc(C(N)=O)c3)n2)cc1O [GW575808A] 0.42

I'd like to know its z-scoreHeLa rep 3. The compound in question is OCCCNc1nccc(-c2c(-c3ccc(F)cc3)nn3cc(C(F)(F)F)ccc23)n1 [GW569293E] -0.36

I'd like to know its z-scoreHeLa rep 3. The compound in question is Cc1ccc(O)cc1Nc1ccnc2cc(-c3ccc(CN4CCCCC4)o3)ccc12 [GW557777X] 1.46

I'd like to know its z-scoreHeLa rep 3. The compound in question is CC(C)c1nc(-c2ccc(F)c(NS(=O)(=O)c3c(F)cccc3F)c2)c(-c2ccnc(Nc3ccc(N4CCOCC4)nc3)n2)s1 [GSK1804250A] -0.10

I'd like to know its z-scoreHeLa rep 3. The compound in question is c1ccc(Oc2ccc(Nc3ccnc4cc(-c5ccc(CN6CCNCC6)o5)ccc34)cc2)nc1 [GW567142A] 1.70

I'd like to know its z-scoreHeLa rep 3. The compound in question is Cc1ccc(NC(=O)c2ccc(Cl)cc2)cc1-c1ccc(C(=O)Nc2ccncc2)cc1 [GSK1398467A] -3.21

I'd like to know its z-scoreHeLa rep 3. The compound in question is Cc1c2ccc(N(C)c3ccnc(Nc4cccc(S(N)(=O)=O)c4)n3)cc2nn1C [GW771127A] -1.07

I'd like to know its z-scoreHeLa rep 3. The compound in question is COc1ccc(Nc2nccc(N3CCC(NC(=O)Nc4cccc(C(C)=O)c4)C3)n2)cc1 (centres unmarked) [GSK1379731A] 0.11

I'd like to know its z-scoreHeLa rep 3. The compound in question is COc1cc2ncn(-c3cc(OCc4ccccc4C(F)(F)F)c(C(=O)N(C)C)s3)c2cc1OC [GSK1030062A] -1.34

I'd like to know its z-scoreHeLa rep 3. The compound in question is Cc1cccc(Cn2ccn3c(=O)cc(N4CCOCC4)nc23)c1 [GSK2297542A] 1.37

I'd like to know its z-scoreHeLa rep 3. The compound in question is COc1cccc(NC(=O)NC2CCN(c3ccnc(Nc4cc(OC)c(OC)c(OC)c4)n3)C2)c1 (centres unmarked) [GSK1379763A] 1.07

I'd like to know its z-scoreHeLa rep 3. The compound in question is Cc1ccccc1CC(=O)N1CCc2cc(-c3cn(C)c4ncnc(N)c34)ccc21 [GSK2603346A] -0.32

---

- System: intracellular MRSA; further: test concentration or dose not given here
- Format: cell-based, Staphylococcus aureus
- Test settings: PKIS compound screen, replicate 3
Readout name: z-scoreMRSA+ rep 3

I'd like to know its z-scoreMRSA+ rep 3. The compound in question is O=C(NC1CCN(c2ccnc(Nc3ccc(F)cc3)n2)C1)c1cc2ccccc2s1 (centres unmarked) [GSK1379716A] -0.07

I'd like to know its z-scoreMRSA+ rep 3. The compound in question is COc1ccc(Nc2nccc(N3CCC(NC(=O)Nc4cccc(OC)c4)C3)n2)cc1 (centres unmarked) [GSK1379742A] 0.15

I'd like to know its z-scoreMRSA+ rep 3. The compound in question is Cn1cncc1-c1cc2c(Nc3ccc(OCc4ccccc4)cc3)ncnc2cn1 [GW281179X] -0.42

I'd like to know its z-scoreMRSA+ rep 3. The compound in question is CNC(=O)c1cc(-c2ccc(F)cc2)cc(-c2ccc(S(=O)(=O)N3CCCC3)cc2)c1N [GSK635416A] -1.00

I'd like to know its z-scoreMRSA+ rep 3. The compound in question is COc1ccc(Nc2nccc(N3CCC(NC(=O)C(C)c4ccc(Cl)cc4)CC3)n2)cc1 (centres unmarked) [GSK1379812A] 0.60

I'd like to know its z-scoreMRSA+ rep 3. The compound in question is CCCN(CCS(C)(=O)=O)Cc1ccc(-c2ccc3ncnc(Nc4ccc(OCc5cccc(F)c5)c(Cl)c4)c3c2)o1 [GW621823A] -2.67

I'd like to know its z-scoreMRSA+ rep 3. The compound in question is [O-][S+]1CCN(Cc2ccc(-c3ccc4ncnc(Nc5ccc(OCc6ccccc6)c(F)c5)c4c3)o2)CC1 [GW576924A] -2.70

I'd like to know its z-scoreMRSA+ rep 3. The compound in question is Cc1cccc(-c2nc(Nc3cccc(C(N)=O)c3)c3ccccc3n2)n1 [GW876019X] 0.84

I'd like to know its z-scoreMRSA+ rep 3. The compound in question is Cc1n[nH]c2ccc(-c3cc(OC[C@@H](N)Cc4ccccc4)cnc3-c3ccoc3)cc12 [GSK507358A] -1.55

I'd like to know its z-scoreMRSA+ rep 3. The compound in question is CN1C(=O)C(Nc2ccccc2)=C(c2ccccc2)C1=O [SB-300079] -0.55

I'd like to know its z-scoreMRSA+ rep 3. The compound in question is CC(C)c1nc(-c2ccc(F)c(NS(=O)(=O)c3c(F)cccc3F)c2)c(-c2ccnc(Nc3ccc(N4CCOCC4)nc3)n2)s1 [GSK1804250A] -0.25

I'd like to know its z-scoreMRSA+ rep 3. The compound in question is Cc1cccc(Cn2ccn3c(=O)cc(N4CCOCC4)nc23)c1 [GSK2297542A] -0.51

I'd like to know its z-scoreMRSA+ rep 3. The compound in question is COC(=O)c1cccc(NC(=O)NC2CCN(c3ccnc(Nc4ccc(OC)cc4)n3)C2)c1 (centres unmarked) [GSK1379746A] -0.31

I'd like to know its z-scoreMRSA+ rep 3. The compound in question is Nc1ncc(-c2cccnc2)c2scc(-c3ccc4c(c3)CCN4C(=O)Cc3ccccc3)c12 [GSK683281A] 0.25

I'd like to know its z-scoreMRSA+ rep 3. The compound in question is COc1ccc(S(=O)(=O)NC2CCN(c3cc(C)nc(Nc4cccc(C#N)c4)n3)CC2)cc1 [GSK1653539A] 1.43

I'd like to know its z-scoreMRSA+ rep 3. The compound in question is Cc1ccc(NC(=O)c2ccnc(N3CCN(C)CC3)c2)cc1-c1ccc(C(=O)NCC2CC2)cc1 [GW775604X] -0.27

I'd like to know its z-scoreMRSA+ rep 3. The compound in question is CS(=O)(=O)CCNCc1ccc(-c2ccc3ncnc(Nc4ccc(OCc5ccccc5)c(Cl)c4)c3c2)o1 [GW574783B] -2.65

I'd like to know its z-scoreMRSA+ rep 3. The compound in question is O=C(Nc1n[nH]c2cc(-c3ccccc3)ccc12)C1CC1 [SB-732941] -0.74

I'd like to know its z-scoreMRSA+ rep 3. The compound in question is Cn1cc(C=C2C(=O)Nc3cccnc32)c2ccccc21 [GW441756X] -1.30

I'd like to know its z-scoreMRSA+ rep 3. The compound in question is COc1ccc2ncnc(Nc3ccc(OCc4ccccc4)cc3)c2c1 [GI261520A] -1.33

I'd like to know its z-scoreMRSA+ rep 3. The compound in question is CCn1c(-c2nonc2N)nc2c(C#CC(C)(C)O)nc(OCCNC)cc21 [GSK949675A] -0.59

I'd like to know its z-scoreMRSA+ rep 3. The compound in question is c1ccc(Cn2ncc3cc(Nc4ncnc5ccccc45)ccc32)cc1 [GW273749A] 0.28

I'd like to know its z-scoreMRSA+ rep 3. The compound in question is Cc1nc(-c2ccccc2)n2nc(NCCCN3CCOCC3)ncc12 [GW874091X] 0.0338

I'd like to know its z-scoreMRSA+ rep 3. The compound in question is Fc1cc(Cl)ccc1Nc1ccnc2cc(-c3ccc(CN4CCOCC4)o3)ccc12 [GW560109X] 0.06

I'd like to know its z-scoreMRSA+ rep 3. The compound in question is Cc1ccc(C(=O)Nc2ccc(Nc3ccnc4cc(-c5nccs5)ccc34)cc2O)cc1 [GW494702A] -1.55

I'd like to know its z-scoreMRSA+ rep 3. The compound in question is CC(C)c1nc(-c2cccc(NS(=O)(=O)c3ccccc3)c2)c(-c2ccnc(Nc3ccc4c(c3)CN(C)CC4)n2)s1 [GSK1649598A] -0.22

I'd like to know its z-scoreMRSA+ rep 3. The compound in question is NS(=O)(=O)c1ccc(N/C=C2\C(=O)Nc3ccc4ncsc4c32)cc1 [GW297361X] -0.68

I'd like to know its z-scoreMRSA+ rep 3. The compound in question is c1ccc(COc2ccc(Nc3ncnc4ccc(-c5ccco5)cc34)cc2)cc1 [GW284372X] -1.09

I'd like to know its z-scoreMRSA+ rep 3. The compound in question is Cn1cc(-c2ccc3c(c2)CCN3C(=O)Cc2cccc(F)c2)c2c(N)ncnc21 [GSK2603358A] 0.62

I'd like to know its z-scoreMRSA+ rep 3. The compound in question is c1ccc(-c2cc3ccncc3cc2OC2CCNCC2)cc1 [GSK1122999D] 0.84

I'd like to know its z-scoreMRSA+ rep 3. The compound in question is COC(=O)c1cccc(NC(=O)NC2CCN(c3ccnc(NCc4ccc(F)cc4)n3)CC2)c1 [GSK1379860A] -0.03

I'd like to know its z-scoreMRSA+ rep 3. The compound in question is Cc1nn2c(=O)cc(N3CCOCC3)nc2n1Cc1cccc(Cl)c1Cl [GSK2342769A] -0.55
